Each item that follows carries a reported pEC50.
# EXPERIMENTAL SYSTEM: GPR40 (Homo sapiens, UniProt O14842)
# Construct: expressed in transfected cells; host or cells: HEK293 cells stably expressing GPR40 (Hygromycin selection)
# Sequence (O14842 whole entry): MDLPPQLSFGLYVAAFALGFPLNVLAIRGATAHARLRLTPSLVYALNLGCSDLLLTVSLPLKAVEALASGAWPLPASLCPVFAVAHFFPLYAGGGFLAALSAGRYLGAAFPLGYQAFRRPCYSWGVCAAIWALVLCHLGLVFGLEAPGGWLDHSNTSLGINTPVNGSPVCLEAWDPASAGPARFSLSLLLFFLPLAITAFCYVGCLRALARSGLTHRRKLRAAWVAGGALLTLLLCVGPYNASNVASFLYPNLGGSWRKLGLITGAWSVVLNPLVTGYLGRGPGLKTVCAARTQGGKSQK
# PROTOCOL DETAILS: IP1 accumulation assay in HEK293 cells stably expressing GPR40
# Type: cell-based
# CONDITION DESCRIPTION: IP1 accumulation, HEK293 cells stably expressing GPR40, 2 hours at 37° C., % effect relative to AMG-1638; table of Biological Example 1
pEC50: −log10 of the molar value.

{"columns": ["MOLECULE", "LT GT EQ", "pEC50"],
 "data": [
  ["COc1ccc(C(=O)N(CC(C)(C)CCCCCCn2cc(CCCCCCC(=O)NCCC[N+](C)(CC(=O)[O-])CC(=O)O)nn2)c2cccc(C)n2)c(N2CCC(COc3cc([C@@H](CC(=O)O)C4CC4)ccn3)CC2)c1 (some centres unmarked)", "=", 6.84],
  ["COc1ccc(F)c(-c2ccc(COc3cccc([C@@H](CC(=O)O)C4CC4)c3)cc2C(C)(C)c2cn(CCCCCCCCCCCCCC(=O)NCCN(CCC(=O)NCCN)CCC(=O)NCCN)nn2)c1", "<", 6.00],
  ["COc1ccc(F)c(-c2ccc(COc3cccc([C@@H](CC(=O)O)C4CC4)c3)cc2CC(C)(C)Cn2cc(CCCCCCCCCCCCCCCCCC(=O)NCC[N+](C)(C)C)nn2)c1", "=", 8.27],
  ["COc1ccc(C(=O)N(CC(C)(C)CCCCCCn2cc(CCCCCCCCCCCCCCCCCC(=O)NCC[N+](C)(CCC(=O)NCCN)CCC(=O)NCCN)nn2)c2cccc(C)n2)c(N2CCC(COc3cc([C@@H](CC(=O)O)C4CC4)ccn3)CC2)c1", "=", 9.54],
  ["COc1ccc(F)c(-c2ccc(COc3cccc([C@@H](CC(=O)O)C4CC4)c3)cc2CC(C)(C)Cn2cc(CCCCCCCCCCCCCC(=O)NCCN(CCC(=O)NCCN)CCC(=O)NCCN)nn2)c1", "=", 6.86]
]}

* * *

# EXPERIMENTAL SYSTEM: GPR40 (Homo sapiens)
# Construct: expressed in transfected cells; host or cells: HEK293 cells stably expressing GPR40 (Hygromycin selection)
# PROTOCOL DETAILS: IP1 accumulation assay in HEK293 cells stably expressing GPR40
# Assay type: cell-based
# CONDITION DESCRIPTION: IP1 accumulation, HEK293 cells stably expressing GPR40, 2 hours at 37° C., % effect relative to AMG-1638; table of Biological Example 1

{"columns": ["MOLECULE", "UOM", "LT GT EQ", "EC50"],
 "data": [
  ["C[C@H](C(=O)O)[C@H](c1ccc2c(c1)O[C@@H](C1CCN(Cc3cc(-n4cc(CCCCCCCCCCCCCCCCCC(=O)NCCCN(C)CC(=O)NCCN)nn4)ccc3OC(F)(F)F)CC1)CC2)C1CC1 [Example 145]", "nM", "=", 0.19],
  ["COc1ccc(F)c(-n2nnc(COc3cccc([C@@H](CC(=O)O)C4CC4)c3)c2CC(C)(C)Cn2cc(COCCOCCOCCOCCOCC(=O)NCC[N+](C)(CCC(=O)NCCN)CCC(=O)NCCN)nn2)c1 [Example 182]", "nM", ">", 10000],
  ["COc1ccc(F)c(-c2ccc(COc3cccc([C@@H](CC(=O)O)C4CC4)c3)cc2CC(C)(C)Cn2cc(CCCCCCCCCC(=O)NCC[N+](C)(CCC(=O)NCCN)CCC(=O)NCCN)nn2)c1 [Example 192]", "nM", "=", 250]
]}

* * *

Each item that follows carries a reported EC50.
# EXPERIMENTAL SYSTEM: GPR40 (Homo sapiens, UniProt O14842)
# Construct: expressed in transfected cells; host or cells: HEK293 cells stably expressing GPR40 (Hygromycin selection)
# PROTOCOL DETAILS: IP1 accumulation assay in HEK293 cells stably expressing GPR40
# Type: cell-based
# CONDITION DESCRIPTION: IP1 accumulation, HEK293 cells stably expressing GPR40, 2 hours at 37° C., % effect relative to AMG-1638; table of Biological Example 1
ATTRIBUTE MEASURED: EC50 (nM)

{"columns": ["COMPOUND", "VALUE MEASURED"],
 "data": [
  ["COc1ccc(F)c(-c2ccc(COc3cccc([C@@H](CC(=O)O)C4CC4)c3)cc2CC(C)(C)Cn2cc(CCCCCCC(=O)NCCN(CCC(=O)NCCN)CCC(=O)NCCN)nn2)c1 [Example 94]", 1950],
  ["COc1ccc(F)c(-c2ccc(COc3cccc([C@@H](CC(=O)O)C4CC4)c3)cc2C(OC)C(C)(C)Cn2cc(CCCCCCCCCCCCCCCCCC(=O)NCCN(CCC(=O)NCCN)CCC(=O)NCCN)nn2)c1 (stereo partly drawn) [Example 14]", 8.8],
  ["COc1ccc(F)c(-c2ccc(COc3cccc([C@@H](CC(=O)O)C4CC4)c3)cc2CC(C)(C)Cn2cc(CCCCCCCCCCCCCCCC(=O)NCCC[N+](C)(CC(=O)[O-])CC(=O)O)nn2)c1 (stereo partly drawn) [Example 123]", 32.7]
]}

* * *

# EXPERIMENTAL SYSTEM: GPR40 (Homo sapiens)
# Construct: expressed in transfected cells; host or cells: HEK293 cells stably expressing GPR40 (Hygromycin selection)
# PROTOCOL DETAILS: IP1 accumulation assay in HEK293 cells stably expressing GPR40
# Format: cell-based
# CONDITION DESCRIPTION: IP1 accumulation, HEK293 cells stably expressing GPR40, 2 hours at 37° C., % effect relative to AMG-1638; table of Biological Example 1
Each item that follows carries a reported EC50.

{"columns": ["COMPOUND", "LT GT EQ", "EC50 [nM]"],
 "data": [
  ["COc1ccc(C(=O)N(CC(C)(C)CCn2cc(CCCCCCCCCCCCCCCC(=O)NCC[N+](C)(CCC(=O)NCCN)CCC(=O)NCCN)nn2)c2cccc(C)n2)c(N2CCC(COc3cc([C@@H](CC(=O)O)C4CC4)ccn3)CC2)c1 [Example 202]", "=", 0.16],
  ["COc1ccc(C(=O)N(CC(C)(C)CCn2cc(CCCCCCCCCCCCC(=O)NCCN(CCC(=O)NCCN)CCC(=O)NCCN)nn2)c2cccc(C)n2)c(N2CCC(COc3cc([C@@H](CC(=O)O)C4CC4)ccn3)CC2)c1 [Example 114]", "=", 0.42],
  ["C[C@H](C(=O)O)[C@H](c1ccc2c(c1)O[C@@H](C1CCN(Cc3cc(-n4cc(CCCCCCCCCC(=O)NCC[N+](C)(CCC(=O)NCCN)CCC(=O)NCCN)nn4)ccc3OC(F)(F)F)CC1)CC2)C1CC1 [Example 194]", "=", 114],
  ["COc1ccc(F)c(-c2ccc(COc3cccc([C@@H](CC(=O)O)C4CC4)c3)cc2CC(C)(C)Cn2cc(CCCCCCCCCCCCCCCCCC(=O)NCC[N+](C)(C)CCCS(=O)(=O)[O-])nn2)c1 [Example 48]", "=", 4.7],
  ["COc1ccc(F)c(-c2ccc(COc3cccc([C@@H](CC(=O)O)C4CC4)c3)cc2CC(C)(C)Cn2cc(COCCOCCOCCOCC(=O)NCC[N+](C)(CCC(=O)NCCN)CCC(=O)NCCN)nn2)c1 [Example 169]", ">", 10000]
]}

* * *

# EXPERIMENTAL SYSTEM: GPR40 (Homo sapiens, UniProt O14842)
# Construct: expressed in transfected cells; host or cells: HEK293 cells stably expressing GPR40 (Hygromycin selection)
# PROTOCOL DETAILS: IP1 accumulation assay in HEK293 cells stably expressing GPR40
# Assay type: cell-based
# CONDITION DESCRIPTION: Table A-8 (additional examples); obtained by methods of Biological Example 1

{"columns": ["SMILES REPR", "EC50"],
 "data": [
  ["COc1ccc(F)c(-c2ccc(COc3cccc([C@@H](CC(=O)O)C4CC4)c3)cc2CC(C)(C)Cn2cc(COCCOCCOCCOCC(=O)NCCN(CCC(=O)NCCN)CCC(=O)NCCN)nn2)c1", "> 10 µM"],
  ["COc1ccc(F)c(-c2ccc(COc3cccc([C@@H](CC(=O)O)C4CC4)c3)cc2CC(C)(C)Cn2cc(COCCOCCOCCOCC(=O)NCC[N+](C)(CCC(=O)NCCN)CCC(=O)NCCN)nn2)c1", "> 10 µM"],
  ["COc1ccc(F)c(-c2ccc(COc3cccc([C@@H](CC(=O)O)C4CC4)c3)cc2CC(C)(C)Cn2cc(COCCOCCOCC(=O)NCCN(CCC(=O)NCCN)CCC(=O)NCCN)nn2)c1", "> 10 µM"],
  ["C[C@H](C(=O)O)[C@H](c1ccc2c(c1)O[C@@H](C1CCN(Cc3cc(-n4cc(COCCOCCOCC(=O)NCC[N+](C)(CCC(=O)NCCN)CCC(=O)NCCN)nn4)ccc3OC(F)(F)F)CC1)CC2)C1CC1", "> 10 µM"],
  ["COc1ccc(C(=O)N(CC(C)(C)CCn2cc(CCCCCCCCCCCCCCCC(=O)NCCN(CCC(=O)NCCN)CCC(=O)NCCN)nn2)c2cccc(C)n2)c(N2CCC(COc3cc([C@@H](CC(=O)O)C4CC4)ccn3)CC2)c1", "0.00017 µM"]
]}
